biological target: Clade B BaL gp120 protein (HIV-1 Clade B, BaL); assay: BLI (Octet), IgG on anti-hIgG Fc sensor, gp120 analyte, 1:1 fit
QUANTITY: koff (s⁻¹)
Just the number please, in s⁻¹, no unit attached.

Q) Recall and state the measured koff for Germ12 (antibody, V domains shown) VH: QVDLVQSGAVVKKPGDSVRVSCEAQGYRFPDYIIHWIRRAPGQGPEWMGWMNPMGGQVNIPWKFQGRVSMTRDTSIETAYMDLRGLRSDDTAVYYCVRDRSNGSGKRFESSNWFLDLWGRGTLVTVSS VL: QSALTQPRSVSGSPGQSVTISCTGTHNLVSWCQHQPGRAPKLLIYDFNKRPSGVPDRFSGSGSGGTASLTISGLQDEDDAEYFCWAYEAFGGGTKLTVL .
A) 7.09e-05

Q) Indicate the recorded koff value for this binder: CysCA (antibody, V domains shown) VH: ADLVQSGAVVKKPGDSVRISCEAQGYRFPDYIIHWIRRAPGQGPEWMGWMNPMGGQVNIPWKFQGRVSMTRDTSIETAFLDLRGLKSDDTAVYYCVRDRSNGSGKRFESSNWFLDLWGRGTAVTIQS VL: QSALTQPRSVSASPGQSVTISCTGTHNLVSWAQHQPGRAPKLLIYDFNKRPSGVPDRFSGSGSGGTASLTITGLQDDDDAEYFCWAYEAFGGGTKLTVL
A) 8.01e-05
